biological target: abc isoform of human TMEM16A channel expressed in CHO cells (Homo sapiens, UniProt Q5XXA6, DEL476-501); construct: expressed in transfected cells; host or cells: CHO cells, doxycycline-inducible expression under Blasticidin/Zeocin selection; assay: Automated patch clamping (QPatch) assay to measure TMEM16A activity in whole-cell; assay type: cell-based; details: CHO, maximum current at highest dose relative to reference potentiator at maximal concentration (upper limit) and vehicle (lower limit); read-out: TMEM16A QPATCH assay EC50 V3 Assay Window (% TMEM16A max activation)
Counter-ions that a name gives are not always drawn.
Tick True if Emax is 70% or greater. Tick False if Emax is less than 70%.

Reference set (10 entries):
compound	assigned_class
CCC(CC)NC(=O)c1cnc(-c2cccc(-c3nc(C(=O)NC(CC)CC)n(CC(=O)OC(C)(C)C)n3)c2)o1 [Example 15.10]	True
CCC(CC)NC(=O)c1cnc(-c2cccc(-c3cc(C(=O)NC(C)(C)c4ccccc4)n[nH]3)c2)o1 [Example 3.54]	True
C[C@H](NC(=O)c1cc(-c2cccc(-c3ncc(C(=O)N[C@H](C)C4CC4)o3)c2)[nH]n1)C1CC1 [Example 1.8]	False
CCC(CC)NC(=O)c1cnc(-c2cccc(-c3cc(C(=O)NC(C)(C)C4CC4)n[nH]3)c2)o1 [Example 3.7]	True
CCOC(=O)[C@H](NC(=O)c1cnc(-c2cccc(-c3cc(C(=O)NC(CC)CC)n[nH]3)c2)o1)c1ccccc1 [Example 1.28]	True
CCC(CC)NC(=O)c1cc(-c2cccc(-c3ncc(C(=O)NCc4ccc5c(c4)OCO5)o3)c2)[nH]n1 [Example 1.31]	False
CCCC(CCC)NC(=O)c1cnc(-c2cccc(-c3cc(C(=O)NC(CC)CC)n[nH]3)c2)o1 [Example 1.35]	True
CCC(CC)NC(=O)c1cc(-c2cccc(-c3ncc(C(=O)N[C@@H](C)C4CCCCC4)o3)c2)[nH]n1 [Example 1.24]	True
CCOC(=O)[C@H](CC(C)C)NC(=O)c1cc(-c2cccc(-c3ncc(C(=O)NC(CC)CC)o3)c2)[nH]n1 [Example 3.60, Trifluoroacetate]	True
CCC(CC)NC(=O)c1cnc(-c2cccc(-c3nnc(C(=O)NC(CC)CC)n3CCOC)c2)o1 [Example 15.5]	True

**Query** # check: Emax of CCC(CC)NC(=O)c1cc(-c2cccc(-c3ncc(C(=O)N[C@H](C)C4CC4)o3)c2)[nH]n1 [Example 1.40] is greater than or equal to 70%
**Result** True

**Query** Could you please find out whether CCOC(=O)[C@@H](NC(=O)c1cc(-c2cccc(-c3ncc(C(=O)NC(CC)CC)o3)c2)[nH]n1)C(C)C [Example 3.52] has Emax that meets 70% or exceeds it?
**Result** True

**Query** hey, is Emax for this one >= 70%? CCC(CC)NC(=O)c1cnc(-c2cccc(-c3cc(C(=O)NCc4ccccc4)n[nH]3)c2)o1 [Example 3.16]
**Result** False

* * *

Some compounds, each annotated with its measured Emax.
Molecular target: abc isoform of human TMEM16A channel expressed in CHO cells (Homo sapiens, UniProt Q5XXA6, DEL476-501)
Construct: expressed in transfected cells; host or cells: CHO cells, doxycycline-inducible expression under Blasticidin/Zeocin selection
Sequence (Q5XXA6 with tags, fused parts or gaps isoform Q5XXA6-5 DEL539-564): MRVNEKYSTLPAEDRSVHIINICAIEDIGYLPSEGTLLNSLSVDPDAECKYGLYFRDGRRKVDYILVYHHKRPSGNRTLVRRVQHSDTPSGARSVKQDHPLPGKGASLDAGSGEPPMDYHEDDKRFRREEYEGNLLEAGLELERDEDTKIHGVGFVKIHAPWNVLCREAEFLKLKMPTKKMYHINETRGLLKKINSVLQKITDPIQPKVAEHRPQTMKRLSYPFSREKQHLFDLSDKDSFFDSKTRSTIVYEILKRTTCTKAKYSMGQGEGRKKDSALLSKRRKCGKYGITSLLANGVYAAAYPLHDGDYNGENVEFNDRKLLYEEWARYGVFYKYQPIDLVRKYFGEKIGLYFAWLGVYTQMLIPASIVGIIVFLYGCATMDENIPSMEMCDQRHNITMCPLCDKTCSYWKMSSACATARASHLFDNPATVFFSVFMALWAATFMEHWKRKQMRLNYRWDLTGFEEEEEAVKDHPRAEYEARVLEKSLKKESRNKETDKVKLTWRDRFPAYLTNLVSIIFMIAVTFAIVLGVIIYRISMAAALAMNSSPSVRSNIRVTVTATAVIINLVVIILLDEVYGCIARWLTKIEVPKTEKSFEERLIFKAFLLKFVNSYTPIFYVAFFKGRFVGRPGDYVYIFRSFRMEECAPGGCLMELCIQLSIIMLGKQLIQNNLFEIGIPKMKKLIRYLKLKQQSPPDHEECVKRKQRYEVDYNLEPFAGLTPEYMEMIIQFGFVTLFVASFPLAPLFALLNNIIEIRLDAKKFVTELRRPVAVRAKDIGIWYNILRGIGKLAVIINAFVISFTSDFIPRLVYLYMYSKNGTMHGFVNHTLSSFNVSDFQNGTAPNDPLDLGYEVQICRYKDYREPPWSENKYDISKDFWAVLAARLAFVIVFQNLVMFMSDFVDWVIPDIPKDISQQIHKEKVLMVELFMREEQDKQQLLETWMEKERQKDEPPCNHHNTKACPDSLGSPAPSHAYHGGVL
Experiment: Automated patch clamping (QPatch) assay to measure TMEM16A activity in whole-cell
Type: cell-based
Settings: CHO, maximum current at highest dose relative to reference potentiator at maximal concentration (upper limit) and vehicle (lower limit); read-out: TMEM16A QPATCH assay EC50 V3 Assay Window (% TMEM16A max activation)
Counter-ions that a name gives are not always drawn.
Your answer should be a plain number; it is taken to be in %.

compound	Emax (%)
C[C@H](NC(=O)c1nnc(-c2cccc(-c3ncc(C(=O)NC4(C5CC5)CC4)o3)c2)[nH]1)C1CC1	72
CCC(CC)NC(=O)c1cnc(-c2cccc(-c3cc(C(=O)N[C@@H](Cc4ccccc4)C(=O)OC)n[nH]3)c2)o1	70

Consider the additional compound presented here.
For this compound ( CCOC(=O)[C@H](C)NC(=O)c1cc(-c2cccc(-c3ncc(C(=O)NC(CC)CC)o3)c2)[nH]n1 [Example 3.63, Trifluoroacetate] ), measured Emax is 72
